target: Recombinant Cat D (Homo sapiens (Human), UniProt P07339); assay: In vitro enzymatic Cathepsin D (Cat D) FRET assay; type: biochemical; details: read-out: IC50 IP (μM) CatD
Sequence (P07339 65-412): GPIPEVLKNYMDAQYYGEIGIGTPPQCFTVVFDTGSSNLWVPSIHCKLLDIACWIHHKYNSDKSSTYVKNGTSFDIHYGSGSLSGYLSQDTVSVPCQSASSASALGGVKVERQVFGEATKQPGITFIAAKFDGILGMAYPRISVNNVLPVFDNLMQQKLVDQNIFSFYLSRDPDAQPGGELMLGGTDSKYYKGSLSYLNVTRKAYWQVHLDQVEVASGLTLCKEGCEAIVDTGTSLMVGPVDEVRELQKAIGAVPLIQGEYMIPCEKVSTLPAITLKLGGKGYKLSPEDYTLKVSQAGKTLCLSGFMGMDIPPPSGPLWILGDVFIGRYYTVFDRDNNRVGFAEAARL
Measurement type: IC50 (µM)

# annotated cases, reported IC50 shown
C[C@]1(c2cc(Nc3nccc4nc(OCc5cscn5)cnc34)cc(F)c2F)N=C(N)S[C@@]2(C(F)F)C[C@@H]12 ... 295
C#CCOc1cnc2c(Nc3cc(F)c(F)c([C@@]4(C)N=C(N)S[C@@]5(COC)C[C@H]54)c3)ncnc2c1 ... 571
COC[C@]12C[C@H]1[C@@](C)(c1cc(NC(=O)c3cnc(OCC(C)C)cn3)cc(F)c1F)N=C(N)S2 ... 135

(I) CNC(=O)[C@]12C[C@H]1[C@@](C)(c1cc(NC(=O)c3ncc(OCC(F)(F)F)cc3C)cc(F)c1F)N=C(N)S2
(II) CN(C)C(=O)CC[C@]12C[C@H]1[C@@](CF)(c1cc(NC(=O)c3ccc(Cl)cn3)ccc1F)N=C(N)S2
Of I and II , whose reported IC50 is the larger number? Refer to your chosen entry by its label in the reply. II
(II: 1070 µM, I: 362 µM)

---

molecular target: Recombinant Cat D (Homo sapiens (Human)); test: In vitro enzymatic Cathepsin D (Cat D) FRET assay; format: biochemical; settings: read-out: IC50 IP (μM) CatD
Measurement type: IC50 (µM)

C#CCOc1cnc(C(=O)Nc2ccc(F)c([C@@]3(C)N=C(N)S[C@@]4(C(=O)NCC)C[C@H]43)c2)cn1 [Example 1017] ... 22.5

(P) C[C@]1(c2cc(Nc3nccc4nc(OCc5ncco5)cnc34)ccc2F)N=C(N)S[C@@]2(C(F)F)C[C@@H]12 [Example 817]
(Q) CCOC[C@]12C[C@H]1[C@@](CF)(c1cc(NC(=O)c3ncc(C#N)cc3C)ccc1F)N=C(N)S2 [Example 715]
(R) N#CC[C@]12C[C@H]1[C@@](CF)(c1cc(Nc3nccc4nc(OCc5ncco5)cnc34)ccc1F)N=C(N)S2 [Example 721]
(S) C#CCOc1cnc(C(=O)Nc2ccc(F)c([C@@]3(CF)N=C(N)S[C@@]4(COCC(F)(F)F)C[C@H]43)c2)cn1 [Example 953]
(T) C#C[C@H](C)Oc1cnc(C(=O)Nc2cc(F)c(F)c([C@@]3(C)N=C(N)S[C@@]4(C(=O)NC)C[C@H]43)c2)cn1 [Example 967]
Highest IC50 first, then in falling order down to the smallest. Please write the labels in the order that was asked for. R, Q, T, P, S

(1) C[C@]1(c2cc(NC(=O)c3cnc(OCC(F)(F)F)cn3)ccc2F)N=C(N)S[C@@]2(C(=O)N3CC[C@@H](F)C3)C[C@H]21 [Example 991]
(2) C[C@]1(c2cc(NC(=O)c3ccc(OCC(F)(F)F)cn3)cc(F)c2F)N=C(N)S[C@@]2(C(=O)N3CCCC3)C[C@H]21 [Example 699]
Of 1 and 2 , whose reported IC50 is the larger number? Refer to your chosen entry by its label in the reply. 1

(A) C[C@]1(c2cc(NC(=O)c3ccc(Cl)cn3)ccc2F)N=C(N)S[C@@]2(CF)C[C@H]21 [Example 821]
(B) COC[C@]12C[C@H]1[C@@](C)(c1cc(Nc3nccc4cc(OCc5nc(Br)cs5)cnc34)cc(F)c1F)N=C(N)S2 [Example 736]
Of A and B , whose reported IC50 is the larger number? Refer to your chosen entry by its label in the reply. A

(A) C#CCOc1cnc2c(Nc3cc(C(=O)OC)c(F)c([C@@]4(C)N=C(N)S[C@@]5(CO)C[C@H]54)c3)nccc2n1 [Example 857]
(B) COc1cnc2c(Nc3cc(F)c(F)c([C@@]4(C)N=C(N)S[C@@]5(C(F)F)C[C@@H]45)c3)nccc2n1 [Example 895]
(C) CCC#CCOc1cnc2c(Nc3ccc(F)c([C@@]4(CF)N=C(N)S[C@@]5(/C=C/C(=O)N(C)C)C[C@H]54)c3)nccc2n1 [Example 952]
Highest IC50 first, then in falling order down to the smallest. Please write the labels in the order that was asked for. A, B, C
(A: 2520 µM, B: 167 µM, C: 16.3 µM)
